Each entry below carries its reported Emax.
study.system: glutathione-S-transferase (GST) tagged LXRbeta LBD (ligand binding domain) (Homo sapiens)
Construct: purchased Invitrogen pv4658.pps
Sequence (P55055 222-460 limits assumed): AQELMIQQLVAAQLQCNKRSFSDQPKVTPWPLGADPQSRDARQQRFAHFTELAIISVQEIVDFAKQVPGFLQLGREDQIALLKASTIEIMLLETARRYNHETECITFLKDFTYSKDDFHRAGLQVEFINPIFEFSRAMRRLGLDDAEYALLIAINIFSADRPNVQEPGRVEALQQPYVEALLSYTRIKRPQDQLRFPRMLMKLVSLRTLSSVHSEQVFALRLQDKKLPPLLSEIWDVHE
protocol.summary: LanthaScreen TR-FRET Liver X Receptor Coactivator Assay, LXR beta-LBD
Format: biochemical
test.settings: efficacy in relation to reference dual agonist T1317; read-out: LXR beta activity at max dose (%) (Emax)
// return numeric value only (unit: %, not printed)

Below, each entry is followed by its recorded Emax result.
[
  {
    "compound": "CN(C)C(=O)c1ccc(-c2cc(Cl)c(N3CCN(S(=O)(=O)c4c(Cl)cccc4Cl)CC3)c(Cl)c2)cc1Cl",
    "study.system": "glutathione-S-transferase (GST) tagged LXRbeta LBD (ligand binding domain) (Homo sapiens)",
    "observed.result": 77
  },
  {
    "compound": "CN(C)C(=O)c1ccc(-c2cnc(N3CCN(C(=O)OC(C)(C)C)CC3Cc3ccccc3)c(C#N)c2)cc1Cl (stereo not shown)",
    "study.system": "glutathione-S-transferase (GST) tagged LXRbeta LBD (ligand binding domain) (Homo sapiens)",
    "observed.result": 120
  }
]

Q: Could you tell me which Emax is on file for "CN(C)C(=O)c1ccc(-c2cnc(N3CCN(C(=O)C(=O)C(F)(F)F)CC3)c(C#N)c2)cc1Cl" ?
Ans: 99

Q: Report Emax for CC(O)CN(CC(C)O)C(=O)c1ccc(-c2cnc(N3CCN(C(=O)OC(C)(C)C)CC3)c(C#N)c2)cc1Cl (stereo not shown) please.
Ans: 56

Q: Endpoint output: Emax of "CN(C)C(=O)c1ccc(-c2cnc(N3CCN(C(=O)[C@](C)(O)C(F)(F)F)CC3)c(C#N)c2)cc1Cl" . Value?
Ans: 94

Q: May I ask what Emax has been recorded for "CNC(=O)c1ccc(-c2cnc(N3CCN(C(=O)[C@](O)(c4ccccc4)C(F)(F)F)CC3)c(C#N)c2)cc1Cl" ?
Ans: 98

Q: Tell me the measured Emax of "CN(C)C(=O)c1ccc(-c2cnc(N3CCN(S(=O)(=O)c4cccnc4)CC3)c(C#N)c2)cc1Cl" , please.
Ans: 85

====

study.system: glutathione-S-transferase (GST) tagged LXRbeta LBD (ligand binding domain) (Homo sapiens, UniProt P55055)
protocol.summary: LanthaScreen TR-FRET Liver X Receptor Coactivator Assay, LXR beta-LBD
test.settings: potency (Inflection Point) of co-activator recruitment, TR-FRET; read-out: LXR beta IP
// reported pEC50 for each item listed
When answering, recall that pEC50 equals minus log10 of the concentration in mol/L, and write that number alone.

Example cases with answers are listed next.
[
  {
    "compound": "CN(C)C(=O)c1ccc(-c2ccc(N3CCN(S(=O)(=O)c4c(Cl)cccc4Cl)CC3)cc2)cc1Cl",
    "pEC50": 6.42
  },
  {
    "compound": "CC(C)(C)OC(=O)N1CCN(c2ncc(-c3ccc(C(=O)N4CC[C@H](O)C4)c(Cl)c3)cc2C#N)CC1",
    "pEC50": 6.58
  },
  {
    "compound": "CN(C)C(=O)c1ccc(-c2cnc(N3CCN(C(=O)[C@@](O)(c4ccccc4)C(F)(F)F)CC3)c(C#N)c2)cc1Cl",
    "pEC50": 6.51
  },
  {
    "compound": "CC(C)(C)OC(=O)N1CCN(c2ncc(-c3ccc(C(=O)NCCCO)c(Cl)c3)cc2C#N)CC1",
    "pEC50": 5.96
  },
  {
    "compound": "CC(C)(C)OC(=O)N1CCN(c2ncc(-c3ccc(C(=O)N4CC[C@@H](O)C4)c(Cl)c3)cc2C#N)CC1",
    "pEC50": 6.32
  },
  {
    "compound": "CN(CCc1ccccc1)C(=O)c1ccc(-c2cnc(N3CCN(C(=O)OC(C)(C)C)CC3)c(C#N)c2)cc1Cl",
    "pEC50": 5.37
  }
]

Q: What value of measured pEC50 is listed for CCC(C)S(=O)(=O)N1CCN(c2ncc(-c3ccc(C(=O)N(C)C)c(Cl)c3)cc2C#N)CC1 (centres unmarked) ?
Ans: 6.55

Q: GET /values?readout=pEC50&item= CN(C)C(=O)c1ccc(-c2cnc(N3CCN(C(=O)C4CCCCO4)CC3)c(C#N)c2)cc1Cl (centres unmarked)
Ans: 5.81

Q: Requested read-out: pEC50. Entry: "CN(C)C(=O)c1ccc(-c2cnc(N3CCN(C(=O)C(O)(C(F)(F)F)C(F)(F)F)CC3)c(C#N)c2)cc1Cl"
Ans: 8.22

Q: Item CN(C)C(=O)c1ccc(-c2cnc(N3CC4CC3CN4C(=O)OC(C)(C)C)c(C#N)c2)cc1Cl (centres unmarked) has what recorded pEC50?
Ans: 6.60

Q: pEC50 for "CN(C)C(=O)c1ccc(-c2cnc(N3CCN(C(=O)OC(C)(C)C)CC3)c(Cl)c2)cc1Cl" ?
Ans: 7.26

Q: Which value of pEC50 has been reported for "CN(C)C(=O)c1ccc(-c2ccc(N3CCN(C(=O)c4ccccc4C#N)CC3)cc2)cc1Cl" in the records?
Ans: 5.63

Q: Fill in: pEC50 of "CN(C)C(=O)c1c(Cl)cc(-c2cnc(N3CC4CCC(C3)N4C(=O)OC(C)(C)C)c(C#N)c2)cc1Cl" is ___
Ans: 7.89

Q: Given the entry "C#Cc1cc(-c2ccc(C(=O)N(C)C)c(Cl)c2)cnc1N1CCN(C(=O)OC(C)(C)C)CC1" , report its measured pEC50.
Ans: 7.21

Q: If you can, please state the reported pEC50 value of "CN(C)C(=O)c1ccc(-c2ccc(N3CC4CCC(C3)N4S(=O)(=O)c3c(Cl)cccc3Cl)cc2)cc1Cl" .
Ans: 7.12

Q: Data request, read-out pEC50, for "CN(C)C(=O)c1ccc(-c2cnc(N3CCN(S(=O)(=O)Cc4ccccc4Cl)CC3)c(C#N)c2)cc1Cl"
Ans: 7.55

====

study.system: glutathione-S-transferase (GST) tagged LXRbeta LBD (ligand binding domain) (Homo sapiens)
Construct: purchased Invitrogen pv4658.pps
protocol.summary: LanthaScreen TR-FRET Liver X Receptor Coactivator Assay, LXR beta-LBD
Assay type: biochemical
test.settings: efficacy in relation to reference dual agonist T1317; read-out: LXR beta activity at max dose (%) (Emax)
Method: While running the LanthaScreen™ TR-FRET Liver X Receptor Coactivator Assay, LXR alpha-LBD or LXR beta-LBD was added to ligand test compounds followed by addition of a mixture of a fluorescein-labelled coactivator peptide and terbium-conjugated anti-GST antibody. After an incubation period at room temperature, TR-FRET (time-resolved fluorescence resonance energy transfer) was measured using a filter-based instrument capable of TR-FRET, e.g. PerkinElmer Envision.
Each entry belongs to exactly one class, chosen by where its Emax falls: low group (below 70%), middle group (70% to below 80%), high group (80% or more)

# example entries with known answers
[
  {
    "molecule": "CN(CCc1ccncc1)C(=O)c1ccc(-c2cnc(N3CCN(C(=O)OC(C)(C)C)CC3)c(C#N)c2)cc1Cl",
    "category": "middle group"
  },
  {
    "molecule": "CCCC(O)(C(=O)N1CCN(c2ncc(-c3ccc(C(=O)N(C)C)c(Cl)c3)cc2C#N)CC1)C(F)(F)F (centres unmarked)",
    "category": "high group"
  },
  {
    "molecule": "CN(C)C(=O)c1ccc(-c2cnc(N3CCN(C(=O)OCc4ccccc4Cl)CC3)c(C#N)c2)cc1Cl",
    "category": "high group"
  }
]

Q: Category lookup for the molecule "CN(C)C(=O)c1ccc(-c2cnc(N3CCN(C(=O)c4c(F)cccc4F)CC3)c(C#N)c2)cc1Cl"
Ans: low group

Q: Category of "CN(C)C(=O)c1ccc(-c2cnc(N3CCN(S(=O)(=O)Cc4ccccc4F)CC3)c(C#N)c2)cc1Cl" , please.
Ans: low group

Q: Just checking, what class would you give "CN(C)C(=O)c1c(Cl)cc(-c2cnc(N3CC4CCC(C3)N4C(=O)OC(C)(C)C)c(C#N)c2)cc1Cl" here?
Ans: low group

====

Entries and their measured Emax follow.
study.system: glutathione-S-transferase (GST) tagged LXRalpha LBD (ligand binding domain) (Homo sapiens)
Construct: purchased Invitrogen pv4655
Sequence (Q13133 209-447 limits assumed): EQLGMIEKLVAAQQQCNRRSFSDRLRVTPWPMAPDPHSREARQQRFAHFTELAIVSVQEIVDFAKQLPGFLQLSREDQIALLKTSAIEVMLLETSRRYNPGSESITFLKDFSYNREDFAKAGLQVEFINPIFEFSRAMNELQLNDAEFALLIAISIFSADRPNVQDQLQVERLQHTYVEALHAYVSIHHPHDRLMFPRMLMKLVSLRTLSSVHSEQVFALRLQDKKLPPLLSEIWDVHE
protocol.summary: LanthaScreen TR-FRET Liver X Receptor Coactivator Assay, LXR alpha-LBD
Format: biochemical
test.settings: efficacy in relation to reference dual agonist T1317; read-out: LXR alpha activity at max dose (%) (Emax)
Record the value in %, omitting the unit from your answer.

Here is how some compounds turned out for Emax.
[
  {
    "compound": "CN(C)C(=O)c1ccc(-c2cnc(N3CCN(C(=O)C4(c5ccccc5F)CCCC4)CC3)c(C#N)c2)cc1Cl",
    "Emax [%]": 57
  },
  {
    "compound": "CN(C)C(=O)c1ccc(-c2cnc(N3CC4CCC(C3)N4C(=O)OC(C)(C)C)c(C#N)c2)cc1Cl",
    "Emax [%]": 52
  },
  {
    "compound": "CCC(O)(C(=O)N1CCN(c2ncc(-c3ccc(C(=O)N(C)C)c(Cl)c3)cc2C#N)CC1)C(F)(F)F (stereo not shown)",
    "Emax [%]": 60
  }
]

Q: Value wanted: Emax (glutathione-S-transferase (GST) tagged LXRalpha LBD (ligand binding domain) (Homo sapiens)) of entry "CC(C)(C)OC(=O)N1CCN(c2ncc(-c3ccc(C(=O)N4CCOCC4)c(Cl)c3)cc2C#N)CC1"
Ans: 38

Q: Can you look up Emax on glutathione-S-transferase (GST) tagged LXRalpha LBD (ligand binding domain) (Homo sapiens) for "CC(C)(C)OC(=O)N1CCN(c2ncc(-c3ccc(C(=O)N4CCC4)c(Cl)c3)cc2C#N)CC1" ?
Ans: 39

Q: Record "CN(C)C(=O)c1ccc(-c2ccc(N3CCN(S(=O)(=O)c4c(Cl)cccc4C(F)(F)F)CC3)c(Cl)c2)cc1Cl" : what is its Emax with glutathione-S-transferase (GST) tagged LXRalpha LBD (ligand binding domain) (Homo sapiens)?
Ans: 51

Q: Entry "CN(C)C(=O)c1ccc(-c2cnc(N3CCN(S(=O)(=O)C4CCCCC4)CC3)c(C#N)c2)cc1Cl" , system glutathione-S-transferase (GST) tagged LXRalpha LBD (ligand binding domain) (Homo sapiens): what Emax was measured?
Ans: 39
